Molecular target: D-amino-acid oxidase (Homo sapiens, UniProt P14920)
Sequence (P14920 whole entry): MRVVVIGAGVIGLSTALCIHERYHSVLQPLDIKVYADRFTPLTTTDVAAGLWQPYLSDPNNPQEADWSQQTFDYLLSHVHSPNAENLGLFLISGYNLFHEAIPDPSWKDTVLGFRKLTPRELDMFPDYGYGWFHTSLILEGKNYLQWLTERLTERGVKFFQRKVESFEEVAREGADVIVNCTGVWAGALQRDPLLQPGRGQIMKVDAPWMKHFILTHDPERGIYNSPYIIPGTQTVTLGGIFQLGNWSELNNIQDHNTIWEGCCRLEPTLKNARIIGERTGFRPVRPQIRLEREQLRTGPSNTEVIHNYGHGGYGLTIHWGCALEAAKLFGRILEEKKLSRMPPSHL
Experiment: Inhibition of human recombinant DAAO expressed in HEK293 cell lysate assessed as D-Serine conversion to H2O2 after 20 mins by spectrophotometric analysis
pIC50: −log10 of the molar value.
Tick condition met if pIC50 is 6 or greater. Tick condition not met if pIC50 is less than 6.

- compound: "O=c1cc(CSc2ccc(F)cc2)occ1O"
  cat: "condition met"
- compound: "O=c1cc(CSc2ncccn2)occ1O"
  cat: "condition not met"
- compound: "O=c1cc(COC2CCCCO2)occ1O (centres undefined)"
  cat: "condition not met"
- compound: "O=c1cc(CSc2ccc(Cl)c(Cl)c2)occ1O"
  cat: "condition met"
- compound: "O=c1cc(COCc2ccccc2)occ1O"
  cat: "condition not met"
- compound: "O=c1ccn(CCc2ccccc2)cc1O"
  cat: "condition not met"
- compound: "CCOCc1cc(=O)c(O)co1"
  cat: "condition not met"
- compound: "COCc1cc(=O)c(O)co1"
  cat: "condition not met"
- compound: "O=c1cc(CCc2ccccc2)occ1O"
  cat: "condition met"
- compound: "O=c1cc(COc2ccc(Cl)c(Cl)c2)occ1O"
  cat: "condition met"
- compound: "O=c1cc(CSc2ccccc2)occ1O"
  cat: "condition met"
- compound: "COc1coc(CO)cc1=O"
  cat: "condition not met"
- compound: "O=c1cc(COc2cccnc2)occ1O"
  cat: "condition not met"
- compound: "O=c1cc(CSc2ccc(Cl)cc2)occ1O"
  cat: "condition met"

* * *

Molecular target: D-amino-acid oxidase (Homo sapiens)
Assay: Inhibition of human recombinant DAAO expressed in HEK293 cell lysate assessed as D-Serine conversion to H2O2 after 20 mins by spectrophotometric analysis
Consider the following molecules and their measured IC50 readings.
measurement kind: IC50

- structure notation: "O=c1cc(COc2ccc(Cl)cc2)occ1O"
  result value: "700 nM"
- structure notation: "O=c1cc(COc2ccc(F)cc2)occ1O"
  result value: "800 nM"
- structure notation: "O=c1cc(COc2cccc3ccccc23)occ1O"
  result value: "900 nM"
- structure notation: "O=c1cc(COc2ccc3ccccc3c2)occ1O"
  result value: "800 nM"
- structure notation: "O=c1cc(COc2ccccc2)occ1O"
  result value: "900 nM"

Where do the numbers come from? From ChEMBL document CHEMBL2396605.
